Sourced from paper PMC3687671

TEST_SYSTEM: human CBS (Homo sapiens)
Sequence (P35520 whole entry): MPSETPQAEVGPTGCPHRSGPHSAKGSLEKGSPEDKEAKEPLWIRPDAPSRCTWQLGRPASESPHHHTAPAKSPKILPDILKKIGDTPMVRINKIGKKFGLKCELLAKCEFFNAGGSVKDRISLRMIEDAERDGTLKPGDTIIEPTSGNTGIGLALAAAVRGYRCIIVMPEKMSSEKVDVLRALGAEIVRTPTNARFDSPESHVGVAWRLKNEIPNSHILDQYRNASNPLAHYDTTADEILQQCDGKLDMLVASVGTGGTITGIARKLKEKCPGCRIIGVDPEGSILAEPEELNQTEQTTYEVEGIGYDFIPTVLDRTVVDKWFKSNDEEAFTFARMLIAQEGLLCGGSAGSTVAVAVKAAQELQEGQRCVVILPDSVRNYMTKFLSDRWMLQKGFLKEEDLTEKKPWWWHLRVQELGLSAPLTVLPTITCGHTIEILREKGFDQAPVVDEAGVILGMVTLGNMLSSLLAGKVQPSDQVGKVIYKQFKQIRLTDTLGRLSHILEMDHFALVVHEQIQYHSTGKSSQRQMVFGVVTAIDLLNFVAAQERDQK
ASSAY_OVERVIEW: H2S production by purified recombinant GST-CBS
Format: biochemical
EXPERIMENTAL_CONTEXT: 0.1 mM compound
The entries below are paired with their reported CBS H2S production (% of control).

> print(dat)
                                   compound                    result
1    NNC(=O)c1ccncc1 [Isoniazid, isoniazid]   86.4 ± 9.4 % of control
2   C#CCOc1ccc(N)cc1C(=O)NCCCC [Parsalmide]   88.4 ± 7.4 % of control
3  N[C@@H]1CON=C1O [D-Cycloserine, D-cycloserine]  94.2 ± 20.5 % of control

May I ask what CBS H2S production (% of control) has been recorded for C#CCN(C)Cc1ccccc1 [Pargyline, pargyline] ?
74.0 ± 12.8 % of control

Please do the same for C[Se]C[C@H](N)C(=O)O [Methylseleno-cysteine, methylselenocysteine] as well.
95.5 ± 2.1 % of control
